Ref: ChEMBL document CHEMBL1201861

# Test system: SF-295;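 note: growth inhibition of SF-295 cells, read out with a cell viability assay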
# assay-protocol: cells
# Assay type: functional, cell-based
# protocol-conditions: Homo sapiens
# Description: SANGER: Inhibition of human SF295 cell growth in a cell viability assay.
Entries annotated with measured IC50

Field IC50 (entry `OC[C@H](Cc1ccccc1)Nc1nc(Oc2ccc3c(c2)CCC3)nc2c1ncn2Cc1ccc(-c2ccccc2)cc1` ) reads 3.23 µM

Field IC50 (entry `NC(=O)c1ccc(N(C(N)=O)c2c(F)cccc2F)nc1-c1ccc(F)cc1F` ) reads > 2 µM

Field IC50 (entry `Cc1ccc(C(=O)Nc2ccc(CN3CCN(C)CC3)c(C(F)(F)F)c2)cc1C#Cc1cnc2cccnn12` ) reads > 0.512 µM

Field IC50 (entry `C/C(=C\c1csc(C)n1)[C@@H]1C[C@@H]2O[C@]2(C)CCC[C@H](C)[C@H](O)[C@@H](C)C(=O)C(C)(C)[C@@H](O)CC(=O)O1` ) reads 0.00192 µM

Field IC50 (entry `O=C(NCCCNc1nc(Nc2cccc(NC(=O)N3CCCC3)c2)ncc1I)c1cccs1` ) reads 4.18 µM

Field IC50 (entry `O=S(=O)(O)c1ccc2cc(/N=N/c3cc(S(=O)(=O)O)c4cccnc4c3O)ccc2c1` ) reads > 16 µM

----------
Entries annotated with measured pIC50
# Test system: EW-16;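 note: growth inhibition of human EW-16 cells, read out as cell viability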
# assay-protocol: cells
# Type: functional, cell-based, Homo sapiens
# protocol-conditions: Homo sapiens, EW-16
# Description: SANGER: Inhibition of human EW-16 cell growth in a cell viability assay.
// field semantics: pIC50 = negative decimal log of concentration (mol/L)

Sample answers from the record:
Field pIC50 (entry C=CC(=O)N1CCCC(Nc2nc(Nc3ccc(N(C)C(=O)CC)cc3)nc3[nH]cnc23)C1 (centres undefined) ) reads 5.59

Field pIC50 (entry `COc1cc(N2CCC(N3CCN(C)CC3)CC2)ccc1Nc1ncc(Cl)c(Nc2ccccc2S(=O)(=O)C(C)C)n1` ) reads 6.98

Field pIC50 (entry `C/C(=C\c1csc(C)n1)[C@@H]1C[C@@H]2O[C@]2(C)CCC[C@H](C)[C@H](O)[C@@H](C)C(=O)C(C)(C)[C@@H](O)CC(=O)O1` ) reads 8.97

Field pIC50 (entry `Nc1ccccc1NC(=O)c1ccc(CNC(=O)OCc2cccnc2)cc1` ) reads 5.72

Field pIC50 (entry `CC1(C)CCC(c2ccc(Cl)cc2)=C(CN2CCN(c3ccc(C(=O)NS(=O)(=O)c4ccc(N[C@H](CCN5CCOCC5)CSc5ccccc5)c(S(=O)(=O)C(F)(F)F)c4)cc3)CC2)C1` ) reads 6.09

// next entry
Field pIC50 (entry `CS(=O)(=O)N1CCN(Cc2cc3nc(-c4cccc5[nH]ncc45)nc(N4CCOCC4)c3s2)CC1` ) reads 5.73

----------
Entries annotated with measured IC50
# Tested on: SW948
# assay-protocol: cells
# Type: functional, cell-based
# protocol-conditions: Homo sapiens
# Description: SANGER: Inhibition of human SW948 cell growth in a cell viability assay.

Field IC50 (entry `NC(=O)c1ccc(N(C(N)=O)c2c(F)cccc2F)nc1-c1ccc(F)cc1F` ) reads > 2 µM

Next:
Field IC50 (entry `COc1ccc(-c2cc3nccn3c(Nc3ncccc3C(N)=O)n2)cc1OC` ) reads > 8 µM

Field IC50 (entry `O=C(NCCCNc1nc(Nc2cccc(NC(=O)N3CCCC3)c2)ncc1I)c1cccs1` ) reads > 5 µM

Field IC50 (entry `NC1(c2ccc(-c3nc4ccn5c(=O)[nH]nc5c4cc3-c3ccccc3)cc2)CCC1` ) reads > 4 µM

Field IC50 (entry `CC1(C)CCC(c2ccc(Cl)cc2)=C(CN2CCN(c3ccc(C(=O)NS(=O)(=O)c4ccc(N[C@H](CCN5CCOCC5)CSc5ccccc5)c(S(=O)(=O)C(F)(F)F)c4)cc3)CC2)C1` ) reads > 2 µM

Field IC50 (entry `Cc1ccc(C(=O)Nc2ccc(CN3CCN(C)CC3)c(C(F)(F)F)c2)cc1C#Cc1cnc2cccnn12` ) reads > 0.512 µM

----------
# Test system: SW982
# assay-protocol: cells
# Type: functional, cell-based
# protocol-conditions: Homo sapiens
# Description: SANGER: Inhibition of human SW982 cell growth in a cell viability assay.
endpoint: IC50 (nM)
Provide only the numeric value, understood in nM.

Sample answers from the record:
Field IC50 (entry `CN(NC(=O)CC(=O)NN(C)C(=S)c1ccccc1)C(=S)c1ccccc1` ) reads 7.44

Field IC50 (entry `O=C(NCCCNc1nc(Nc2cccc(NC(=O)N3CCCC3)c2)ncc1I)c1cccs1` ) reads 951

Next:
Field IC50 (entry `NC(=O)Nc1cc(-c2cccc(F)c2)sc1C(=O)N[C@H]1CCCNC1` ) reads 784

Field IC50 (entry `Cc1ccc(C(=O)Nc2ccc(CN3CCN(C)CC3)c(C(F)(F)F)c2)cc1C#Cc1cnc2cccnn12` ) reads 300

----------
# System: KURAMOCHI
# assay-protocol: cells
# Type: functional, cell-based, Homo sapiens
# protocol-conditions: Homo sapiens, KURAMOCHI
# Description: SANGER: Inhibition of human KURAMOCHI cell growth in a cell viability assay.
endpoint: IC50

Sample answers from the record:
Field IC50 (entry `Cc1cc(N2CCOCC2)cc2[nH]c(-c3c(NC[C@@H](O)c4cccc(Cl)c4)cc[nH]c3=O)nc12` ) reads 4 µM

Field IC50 (entry NC(=O)c1ccc(N(C(N)=O)c2c(F)cccc2F)nc1-c1ccc(F)cc1F [VX-702] ) reads > 2 µM

Next:
Field IC50 (entry `COC(=O)[C@H](CCSC)NC(=O)c1ccc(NC[C@@H](N)CS)cc1-c1ccccc1` ) reads > 1.02 µM

Field IC50 (entry NC1(c2ccc(-c3nc4ccn5c(=O)[nH]nc5c4cc3-c3ccccc3)cc2)CCC1 [MK-2206] ) reads > 4 µM

----------
# Test system: LB996-RCC
# assay-protocol: cells
# Assay type: functional, cell-based, Homo sapiens
# protocol-conditions: Homo sapiens, LB996-RCC
# Description: SANGER: Inhibition of human LB996-RCC cell growth in a cell viability assay.
Entries annotated with measured IC50

Sample answers from the record:
Field IC50 (entry C=CC(=O)N1CCCC(Nc2nc(Nc3ccc(N(C)C(=O)CC)cc3)nc3[nH]cnc23)C1 (stereo not drawn) ) reads > 10200 nM

Field IC50 (entry `COC(=O)[C@H](CCSC)NC(=O)c1ccc(NC[C@@H](N)CS)cc1-c1ccccc1` ) reads > 1020 nM

Field IC50 (entry `O=S(=O)(O)c1ccc2cc(/N=N/c3cc(S(=O)(=O)O)c4cccnc4c3O)ccc2c1` ) reads > 16000 nM

Field IC50 (entry Cc1ccc(-n2nc(C(C)(C)C)cc2NC(=O)Nc2ccc(OCCN3CCOCC3)c3ccccc23)cc1 [DORAMAPIMOD] ) reads > 10000 nM

Next:
Field IC50 (entry CC(C)C[C@H](NC(=O)[C@H](Cc1ccccc1)NC(=O)c1cnccn1)B(O)O [BORTEZOMIB] ) reads 3.4 nM

Field IC50 (entry CN(C)CCOc1ccc(-c2nc(-c3ccncc3)c(-c3ccc4c(c3)CC/C4=N\O)[nH]2)cc1 [SB590885] ) reads > 5000 nM

Field IC50 (entry `NC(=O)c1cccc(-c2cc(Nc3ccc(OC(F)(F)F)cc3)ncn2)c1` ) reads > 1280 nM

Field IC50 (entry `COc1ccc(-c2cc3nccn3c(Nc3ncccc3C(N)=O)n2)cc1OC` ) reads 1700 nM

----------
Entries annotated with measured IC50
# Test system: 647-V
# assay-protocol: cells
# Format: functional, cell-based
# protocol-conditions: Homo sapiens
# Description: SANGER: Inhibition of human 647-V cell growth in a cell viability assay.

Sample answers from the record:
Field IC50 (entry `Cc1ccc(-n2nc(C(C)(C)C)cc2NC(=O)Nc2ccc(OCCN3CCOCC3)c3ccccc23)cc1` ) reads > 10000 nM

Field IC50 (entry `O=C1NC(=O)c2c1c(-c1ccccc1Cl)cc1[nH]c3ccc(O)cc3c21` ) reads > 2000 nM

Field IC50 (entry `CN(C)CCOc1ccc(-c2nc(-c3ccncc3)c(-c3ccc4c(c3)CC/C4=N\O)[nH]2)cc1` ) reads > 5000 nM

Next:
Field IC50 (entry `CN(NC(=O)CC(=O)NN(C)C(=S)c1ccccc1)C(=S)c1ccccc1` ) reads 6.9 nM

Field IC50 (entry `CC1(C)CCC(c2ccc(Cl)cc2)=C(CN2CCN(c3ccc(C(=O)NS(=O)(=O)c4ccc(N[C@H](CCN5CCOCC5)CSc5ccccc5)c(S(=O)(=O)C(F)(F)F)c4)cc3)CC2)C1` ) reads > 2000 nM

----------
# Test system: KY821;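 note: growth inhibition of human KY821 cells, read out by a cell viability assay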
# assay-protocol: cells
# Type: functional, cell-based, Homo sapiens
# protocol-conditions: Homo sapiens, KY821
# Description: SANGER: Inhibition of human KY821 cell growth in a cell viability assay.
pIC50: −log10 of the molar value.
Entries annotated with measured pIC50

Field pIC50 (entry CC1(C)CCC(c2ccc(Cl)cc2)=C(CN2CCN(c3ccc(C(=O)NS(=O)(=O)c4ccc(N[C@H](CCN5CCOCC5)CSc5ccccc5)c(S(=O)(=O)C(F)(F)F)c4)cc3)CC2)C1 [NAVITOCLAX] ) reads 7.53

Field pIC50 (entry CN(NC(=O)CC(=O)NN(C)C(=S)c1ccccc1)C(=S)c1ccccc1 [ELESCLOMOL] ) reads < 6.70

Field pIC50 (entry Cc1ccc(C(=O)Nc2ccc(CN3CCN(C)CC3)c(C(F)(F)F)c2)cc1C#Cc1cnc2cccnn12 [PONATINIB] ) reads < 6.29

Field pIC50 (entry NC(=O)Nc1cc(-c2cccc(F)c2)sc1C(=O)N[C@H]1CCCNC1 [AZD-7762] ) reads 6.67

Field pIC50 (entry Cc1ccc(NC(=O)c2ccc(CN3CCN(C)CC3)cc2)cc1Nc1nccc(-c2cccnc2)n1 [IMATINIB] ) reads < 5.70

// next entry
Field pIC50 (entry `O=S(=O)(O)c1ccc2cc(/N=N/c3cc(S(=O)(=O)O)c4cccnc4c3O)ccc2c1` ) reads < 4.80
